Bin overview
molecular target: human Gal3-His (Homo sapiens, UniProt P17931); assay: Antibody binning by biolayer interferometry (Gator); format: binding; settings: antibody competition
Sequence (P17931 whole entry): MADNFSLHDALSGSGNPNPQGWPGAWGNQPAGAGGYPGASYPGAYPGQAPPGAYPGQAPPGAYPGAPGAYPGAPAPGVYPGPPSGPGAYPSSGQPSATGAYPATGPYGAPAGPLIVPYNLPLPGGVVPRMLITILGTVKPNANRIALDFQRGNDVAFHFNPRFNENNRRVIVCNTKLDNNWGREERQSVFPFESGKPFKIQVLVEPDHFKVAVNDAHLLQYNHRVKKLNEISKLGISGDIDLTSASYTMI
Hey, just send me the number, nothing else.

- Molecule: "20D11.2C6: murine anti-Gal3 antibody (antibody, V domains shown) VH: EVQLQQSGPELVKPGASVKISCKASGYTFTDFYINWVKQSHGKSLEWIGDINPKNGGINYNPKFKIKATLTVDKSSSTSYMDLRGLTSEDSAVYYCTSGYGFPYWGQGTLVTVSA VL: DIQMNQSPSSLSASLGDTITITCRASQNIYIWLSWYQQKPGNIPKLLIYKASNLHTGVPSRFSGSGSGTDFTLTISTLQPEDIATYFCLQGQSYPLTFGAGTKLEMK"
  Bin: 5

Attention now shifts to the item below.
query: Which Bin value belongs to 4A11.2B5: murine anti-Gal3 antibody, origin of IMT006-1 and IMT006-5 (antibody, V domains shown) VH: QVQLQQSGPELVKPGASVKISCKASGYSFTNYYIHWVKQRPGQGLEWIGWIYPGSGNTNYNEKFKGKATLTADTSSSTTNMQLSSLTSEDSAVYYCSTAPGGFDVWGSGTTVTVSS VL: DIVMTQAAFSNPVTLGTSASISCRSSKSLLHSDGITYLYWYLQRPGQSPQLLIYRMSNLASGVPDRFSGSGSGTDFTLRISRVEAEDVGVYYCAQMLEFPLTFGAGTKLELK ?
result: 3

Source: patent US20220380473A1
